System: MS2 coat protein
ASSAY_PROTOCOL: apparent KD of MS2 coat protein; designed switch direction (-1 OFF switch, 1 ON switch): -1; higher = weaker reporter binding
EXPERIMENTAL_CONDITIONS: input ligand: microRNA oligo, concentration not stated
Quick reference for apparent KD of MS2 coat protein among some sequences
Please give a number only; it is taken to be in nM.

Query block: Quick one: apparent KD of MS2 coat protein of GCACGGAUGGUAGGAUAUCUGUGCGAUUAGCUCAGAGAAGGACCACAUGAGGAUCACCCAUGUACCUCAAUUAGCCUUCCGUGC [Eli exng1 - 019] (Eterna round: R96, puzzle: Exclusion NG 1) ?
Result block: 11.3

Query block: Quick one: apparent KD of MS2 coat protein of AGGUCCUUCUGGAGACAUGAGGAUCACCCAUGUCGAGUCAGCGAGGAUAUCGGUUAAUAAUGUGAUGAGAAGGCGCGGACCGAU [Ex NG3 #54] (Eterna round: R96, puzzle: Exclusion NG 3) ?
Result block: 11.6

Query block: Quick one: apparent KD of MS2 coat protein of AAACCCGCGCGAGGAUAUCACAUGAGGAUCACCCAUGUGGCACUCCGUCACCGGGCAGUCCCGAGUGAGAAGGUGCAGGCGGAA [Entereis] (Eterna round: R96, puzzle: Exclusion NG 2) ?
Result block: 32.4

Query block: Quick one: apparent KD of MS2 coat protein of UAAAACCGGUGAGGAUAUUUUUAAUAGAGCUUUAUGAUAUACAUGAGGAUCACCCAUGUUACGUUAAAGAAGGCAUCGGAAAAU [Mat - Exclusion NG 2 - Mod of JL - D99] (Eterna round: R96, puzzle: Exclusion NG 2) ?
Result block: 14.5

Query block: Quick one: apparent KD of MS2 coat protein of UGGUCCCUGAAACAUGAGGAUCACCCAUGUAUAAUGAGGACAAAGGAUAUAUCCCACCAGGUAGGGUAGAAGGUUGAACUCUAC [Eternabot solution 42] (Eterna round: R96, puzzle: Exclusion NG 3) ?
Result block: 10.6

Query block: Quick one: apparent KD of MS2 coat protein of CCAAACUGAGGAUAUACAUGAGGAUCACCCAUGUGCCCGCGGUCAUAUGUAGCCUAGUGUAGAAGGCAGAAAAC [Rearle] (Eterna round: R96, puzzle: Exclusion 3) ?
Result block: 41.8

Query block: Quick one: apparent KD of MS2 coat protein of AACCUGAGGCUUUGCUUUAGGUUUACAUGAGGAUCACCCAUGUAGGAUAUGGUAGGCUUUGCUUACCAGAAGGACAUGAAAAUU [Mat - Exclusion NG 3 - Mod of JL - D28] (Eterna round: R96, puzzle: Exclusion NG 3) ?
Result block: 40.4

Query block: Quick one: apparent KD of MS2 coat protein of AGAAGUAGAAACCGAUCCUACAUGAGGAUCACCCAUGUAGCAAGACGUGCACGCGAAGCUCGUCAGACUACCAGAAG [solution 24] (Eterna round: R96, puzzle: Sensor v2, turn-off variant) ?
Result block: 288

Sourced from the supplement of paper PMC9170038
